FYI, the data here is from patent US20070004660A1.

# MEASURED ON: isolated kinase domain of the human FLT3 receptor (a.a. 571-993) (Homo sapiens)
# Construct: human FLT3 receptor (a.a. 571-993)
# PROCEDURE SUMMARY: FLT3 fluorescence polarization kinase assay
# RECORDED CONDITIONS: 150 uM ATP; uncertainty ±10%
Could you please report measured log10 IC50 for the items listed next?
All values: log10 IC50 [nM].

Worked set:
{"columns": ["STRUCTURE SMILES", "MEASURED ON", "OBSERVED RESULT"],
 "data": [
  ["CN1CCN(CCCOc2ccc3c(C4CCN(C(=S)Nc5ccc(N6CCOCC6)nc5)CC4)ncnc3c2)CC1", "isolated kinase domain of the human FLT3 receptor (a.a. 571-993) (Homo sapiens)", 3.34],
  ["CC(C)Oc1ccc(NC(=O)N2CCC(c3ncnc4cc(OCCCNS(C)(=O)=O)ccc34)CC2)cc1", "isolated kinase domain of the human FLT3 receptor (a.a. 571-993) (Homo sapiens)", 1.28],
  ["COc1cc2ncnc(C3CCN(C(=O)Nc4ccc(OC5CCCC5)nc4)CC3)c2cc1OC", "isolated kinase domain of the human FLT3 receptor (a.a. 571-993) (Homo sapiens)", 1.88],
  ["CN(C)C(=O)N1CCN(c2ccc3c(C4CCN(C(=O)Nc5ccc(N6CCOCC6)cc5)CC4)ncnc3c2)CC1", "isolated kinase domain of the human FLT3 receptor (a.a. 571-993) (Homo sapiens)", 0.60],
  ["CN1CCC(COc2ccc3c(C4CCN(C(=O)Nc5ccc(OC6CCC6)nc5)CC4)ncnc3c2)CC1", "isolated kinase domain of the human FLT3 receptor (a.a. 571-993) (Homo sapiens)", 0.00]
]}

Below are 2 molecules. Give each one its log10 IC50.
1. CCOc1ccc(NC(=O)N2CCC(c3ncnc4cc(OC)c(OC)cc34)CC2)cc1
2. CC(C)Oc1ccc(NC(=O)N2CCC(c3ncnc4cc(OCCCN5CCCC5=O)ccc34)CC2)cc1

Key:
2.18
0.48

Exercise: Fill in the recorded log10 IC50 for this molecule, with isolated kinase domain of the human FLT3 receptor (a.a. 571-993) (Homo sapiens) as test system: O=C(Nc1ccc(N2CCCC2)nc1)N1CCC(c2ncnc3cc(OCCCn4cnnc4)ccc23)CC1
Key: 0.95

====

# MEASURED ON: isolated kinase domain of the human FLT3 receptor (a.a. 571-993) (Homo sapiens, UniProt P36888)
# Construct: human FLT3 receptor (a.a. 571-993)
# Sequence (P36888 571-993): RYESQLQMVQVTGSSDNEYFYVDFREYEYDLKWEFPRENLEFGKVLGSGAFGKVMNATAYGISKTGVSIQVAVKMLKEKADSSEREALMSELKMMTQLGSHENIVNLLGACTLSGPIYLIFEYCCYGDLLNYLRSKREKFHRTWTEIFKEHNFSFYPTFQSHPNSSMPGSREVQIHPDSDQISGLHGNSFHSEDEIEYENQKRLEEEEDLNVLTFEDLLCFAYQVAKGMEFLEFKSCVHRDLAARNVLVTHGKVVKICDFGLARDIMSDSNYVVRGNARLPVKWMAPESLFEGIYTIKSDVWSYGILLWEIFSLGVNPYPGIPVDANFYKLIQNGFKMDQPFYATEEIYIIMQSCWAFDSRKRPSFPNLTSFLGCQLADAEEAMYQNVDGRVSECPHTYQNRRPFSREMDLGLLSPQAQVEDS
# PROCEDURE SUMMARY: FLT3 fluorescence polarization kinase assay
# RECORDED CONDITIONS: 150 uM ATP; uncertainty ±10%
Could you please report measured IC50 for the items listed next?
Answers are plain numbers, in µM.

Worked set:
{"columns": ["COMPOUND", "OBSERVED RESULT"],
 "data": [
  ["CN1CCN(c2ccc3c(C4CCN(C(=O)Nc5ccc(N6CCCC6)cc5)CC4)ncnc3c2)CC1 [Example 159]", 0.007],
  ["CS(=O)(=O)N1CCN(CCCOc2ccc3c(C4CCN(C(=O)Nc5ccc(N6CCCC6)cc5)CC4)ncnc3c2)CC1 [Example 164]", 0.025]
]}

Below are 2 compounds. Give each one its IC50.
1. CCN1CCN(c2ccc3c(C4CCN(C(=O)Nc5ccc(N6CCOCC6)cc5)CC4)ncnc3c2)CC1 [Example 136]
2. CC(C)Oc1ccc(NC(=O)N2CCC(c3ncnc4cc(OCCCc5nnn[nH]5)ccc34)CC2)cc1 [Compound 204]

Key:
0.025
0.306

Below are 3 compounds. Give each one its IC50.
1. COc1cc2ncnc(C3CCN(C(=O)Nc4ccc(CO)cc4)CC3)c2cc1OC [Example 22]
2. COc1cc2ncnc(C3CCN(C(=O)Nc4ccc(C5=CCN(C(=O)OC(C)(C)C)CC5)cc4)CC3)c2cc1OC [Example 61]
3. CN1CCCN(c2ccc3c(C4CCN(C(=O)Nc5ccc(N6CCOCC6)cc5)CC4)ncnc3c2)CC1 [Example 138]

Key:
1: 4.4; 2: 8.5; 3: 0.028
